These entries and their values trace back to patent US20050075400A1.

Experiment: Thermal stability / form transformation on heating or drying (XRPD)
Assay type: physicochemical
Details: heating under ambient or reduced pressure, generally about 40-80° C.
readout: form obtained upon drying / heating

[[record]]
molecule = "CC(C)[C@H]1CC[C@H](C(=O)N[C@H](Cc2ccccc2)C(=O)O)CC1 [Form Q, nateglinide]"
result_value = "convert to Form B"

[[record]]
molecule = "CC(C)[C@H]1CC[C@H](C(=O)N[C@H](Cc2ccccc2)C(=O)O)CC1 [Form A, nateglinide]"
result_value = "convert to Form B"

[[record]]
molecule = "CC(C)[C@H]1CC[C@H](C(=O)N[C@H](Cc2ccccc2)C(=O)O)CC1 [Form Ω, nateglinide]"
result_value = "convert to Form B"

